read-out: E-selectin (Homo sapiens) (UniProt P16581); experiment: BSK_3C_Eselectin: BioMAP Diversity Plus: 3C Assay for Eselectin Biomarker Activity (AID 2283015); details: primary human endothelial cells (HUVEC); actives raise or lower the signal
Sequence (P16581 whole entry, looked up): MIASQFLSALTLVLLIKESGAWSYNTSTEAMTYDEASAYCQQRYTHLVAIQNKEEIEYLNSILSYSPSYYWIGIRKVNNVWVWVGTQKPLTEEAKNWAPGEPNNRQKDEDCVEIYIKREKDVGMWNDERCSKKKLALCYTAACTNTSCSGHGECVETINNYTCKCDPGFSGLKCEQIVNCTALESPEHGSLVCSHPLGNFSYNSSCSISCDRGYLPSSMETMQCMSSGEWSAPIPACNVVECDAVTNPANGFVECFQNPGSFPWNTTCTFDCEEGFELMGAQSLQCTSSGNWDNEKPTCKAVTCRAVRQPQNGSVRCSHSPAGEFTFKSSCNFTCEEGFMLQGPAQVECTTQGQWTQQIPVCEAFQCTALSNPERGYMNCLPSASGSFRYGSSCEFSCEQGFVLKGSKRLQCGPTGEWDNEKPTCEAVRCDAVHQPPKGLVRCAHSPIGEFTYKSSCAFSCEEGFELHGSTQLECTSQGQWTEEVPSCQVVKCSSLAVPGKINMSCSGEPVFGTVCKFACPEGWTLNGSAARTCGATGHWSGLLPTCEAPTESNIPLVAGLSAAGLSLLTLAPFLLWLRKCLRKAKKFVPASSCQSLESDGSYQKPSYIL
Calls of active or inactive are those of the source. How the source made its calls: active means hit-call score of the fitted dose curve at least 0.9, where 1 is the maximum; inactive means score below 0.9.
MEASUREMENT_KIND: AC50

MOLECULE | MEASURED_VALUE
O=C(O)C=CC(F)(C(F)(F)F)C(F)(F)F | inactive
CC(Cl)(Cl)C(=O)O | inactive
CC(C)(C)c1ccc(O)cc1 | inactive
C=CC(=O)OCC(CC)(COC(=O)C=C)COC(=O)C=C | 2.37 µM (active)
O=[N+]([O-])c1ccccc1 | inactive
Cc1ccc(O)cc1C | inactive
Nc1ccc2ccccc2c1 | inactive

Would you kindly look at the next entry?
Value of AC50 reported for the molecule CCCCC(CC)COP(=O)(Oc1ccccc1)Oc1ccccc1 (stereo not drawn) is 6.53 µM (active)

====

read-out: Urokinase-type plasminogen activator receptor (uPAR), PLAUR (gene 5329); experiment: BSK_CASM3C_uPAR: BioMAP Diversity Plus: CASM3C Assay for Urokinase-type plasminogen activator receptor (uPAR) Biomarker Activity (AID 2283054); conditions: primary human coronary artery smooth muscle cells; actives raise or lower the signal;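 further: cell-surface uPAR protein level quantified by ELISA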
Active and inactive are the calls of the source. Rule for the calls: active = hit-call score of the fitted dose curve at least 0.9, where 1 is the maximum; inactive = score below 0.9.
MEASUREMENT_KIND: outcome

In the examples that follow, each entry is paired with its recorded outcome.
COMPOUND | outcome
c1ccc(OP(Oc2ccccc2)Oc2ccccc2)cc1 | inactive
C=CC(=O)OCC(F)(F)C(F)F | inactive
CCCCC(CC)COP(=O)(Oc1ccccc1)Oc1ccccc1 (centres undefined) | inactive
ClC(Cl)(Cl)c1ccccc1 | inactive
NC(=O)C(F)(F)C(F)(F)F | inactive

Value of outcome reported for the compound Nc1cc2c3c(c1)C(c1ccccc1)=N[C@@H](NC(=O)c1cccnc1)C(=O)N3CC2 is inactive

Value of outcome reported for the compound CCN(CC)c1ccccc1 is inactive

Value of outcome reported for the compound CCNc1nc(Cl)nc(NC(C)(C)C)n1 is inactive

====

target: Retinoic acid receptor alpha (Homo sapiens); test: ATG_DR5_RAR_CIS: Attagene CIS-FACTORIAL HepG2 Assay for human Retinoic Acid Receptor Alpha (RARE), DR5 submotif (AID 2282934); conditions: HepG2 Attagene cis-factorial RARE DR5 reporter, mRNA; actives raise or lower the signal
The source made the active and inactive calls. The calls were made as follows: active = hit-call score of the fitted dose curve at least 0.9, where 1 is the maximum; inactive = score below 0.9.
Can you answer with just one of these options? 1 (active), 0 (inactive)

MOLECULE | ANSWER_LABEL
FC(F)(F)C(F)(C(F)(F)F)C(F)(F)C(F)(F)CC1CO1 (centres undefined) | 0
CCOC(=O)c1ccccc1N | 0
CC(=O)CCc1ccc2c(c1)OCO2 | 0
O=C(O)C(F)(OC(F)(F)C(F)(F)C(F)(F)F)C(F)(F)F (centres undefined) | 0
C=C(C)C(=O)OCC1CO1 (centres undefined) | 0

Please let me know the test result on file for O=C(O)C(F)(F)C(F)(F)C(=O)O .
0

Please let me know the test result on file for COC(=O)C(F)(F)C(F)(F)OC(F)(C(F)(F)F)C(F)(F)OC(F)=C(F)F (centres undefined) .
0

Please let me know the test result on file for COP(=O)(CCC(=O)NCO)OC .
0

Please let me know the test result on file for CC(O)C#N (centres undefined) .
0

Please let me know the test result on file for CCOP(=S)(NC(C)C)Oc1ccccc1C(=O)OC(C)C (centres undefined) .
0

Taken from PubChem BioAssay (EPA / NIEHS).
